Numbers sourced from patent US20090018134A1.

Please provide measured pIC50 for the entries that follow.
# system.tested: mTOR (Homo sapiens, UniProt P42345)
# Construct: FLAG; made in house
# Sequence (P42345 1362-2549): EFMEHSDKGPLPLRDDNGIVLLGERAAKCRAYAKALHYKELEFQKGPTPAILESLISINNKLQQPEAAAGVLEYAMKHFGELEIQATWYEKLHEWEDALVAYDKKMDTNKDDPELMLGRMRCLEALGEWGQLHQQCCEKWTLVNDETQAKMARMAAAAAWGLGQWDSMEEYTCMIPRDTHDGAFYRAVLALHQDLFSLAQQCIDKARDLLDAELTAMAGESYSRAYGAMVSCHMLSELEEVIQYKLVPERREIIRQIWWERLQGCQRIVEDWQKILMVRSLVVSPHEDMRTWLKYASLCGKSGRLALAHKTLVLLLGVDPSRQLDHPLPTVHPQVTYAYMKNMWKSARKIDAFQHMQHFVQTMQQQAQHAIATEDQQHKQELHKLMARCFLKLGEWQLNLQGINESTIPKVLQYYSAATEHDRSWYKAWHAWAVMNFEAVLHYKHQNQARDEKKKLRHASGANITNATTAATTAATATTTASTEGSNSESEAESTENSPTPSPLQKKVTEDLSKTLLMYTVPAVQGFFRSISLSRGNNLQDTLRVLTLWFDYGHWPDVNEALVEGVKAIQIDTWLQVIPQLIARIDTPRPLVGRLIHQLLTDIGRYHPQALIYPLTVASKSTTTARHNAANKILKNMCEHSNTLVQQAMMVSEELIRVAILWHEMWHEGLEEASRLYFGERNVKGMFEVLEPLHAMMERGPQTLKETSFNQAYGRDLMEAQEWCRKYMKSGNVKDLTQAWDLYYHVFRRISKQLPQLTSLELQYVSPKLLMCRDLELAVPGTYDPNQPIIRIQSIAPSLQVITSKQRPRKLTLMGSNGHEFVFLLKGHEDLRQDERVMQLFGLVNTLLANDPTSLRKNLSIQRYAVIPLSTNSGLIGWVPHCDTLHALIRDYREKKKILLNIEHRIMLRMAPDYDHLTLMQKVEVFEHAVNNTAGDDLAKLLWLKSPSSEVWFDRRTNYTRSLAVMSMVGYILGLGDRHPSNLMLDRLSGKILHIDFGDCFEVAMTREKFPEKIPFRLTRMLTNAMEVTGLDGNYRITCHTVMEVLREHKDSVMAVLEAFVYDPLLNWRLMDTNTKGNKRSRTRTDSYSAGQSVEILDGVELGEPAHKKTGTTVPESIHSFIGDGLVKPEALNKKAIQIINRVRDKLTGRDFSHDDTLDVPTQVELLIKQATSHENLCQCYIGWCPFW
# assay.procedure: In Vitro mTOR Kinase Assay (Echo), Test (a)(ii)
# Type: biochemical
# run.parameters: table of enzyme assay Test (a)(ii); read-out: Test (a)(ii) IC50
Formally, pIC50 is defined as -log10 of the concentration c, with c in mol/L.

Recall and state the measured pIC50 for CC[C@H]1COCCN1c1cc(C2(S(C)(=O)=O)CC2)nc(-c2ccc(NC(=O)Nc3cnn(C)c3)cc2)n1 [Example 84f] .
7.87

Recall and state the measured pIC50 for CNC(=O)Nc1ccc(-c2nc(N3CCOC[C@@H]3C)cc(C3(S(=O)(=O)c4c(C)nn(C(F)F)c4C)CC3)n2)cc1 [Example 75a] .
7.36

Recall and state the measured pIC50 for Cn1cc(NC(=O)Nc2ccc(-c3nc(N4CCOCC4)cc(C4(S(=O)(=O)c5ccc(F)cc5)CC4)n3)cc2)cn1 [Example 36aq] .
7.80

Recall and state the measured pIC50 for C[C@H]1COCCN1c1cc(C2(S(=O)(=O)c3ccc(Cl)cc3)CC2)nc(-c2ccc(NC(=O)Nc3ccon3)cc2)n1 [Example 64ai] .
8.25

Recall and state the measured pIC50 for Cc1nc(S(=O)(=O)C2(c3cc(N4CCOC[C@@H]4C)nc(-c4ccc(NC(=O)NC5CC5)cc4)n3)CC2)sc1C [Example 80b] .
7.99

Recall and state the measured pIC50 for CCCNC(=O)Nc1ccc(-c2nc(N3CCOC[C@@H]3C)cc(C3(S(=O)(=O)c4ccccn4)CC3)n2)cc1 [Example 28h] .
9.03

Recall and state the measured pIC50 for CNC(=O)CS(=O)(=O)C1(c2cc(N3CCOCC3)nc(-c3ccc(NC(=O)NC4CC4)cc3)n2)CC1 [Example 46a] .
7.90

Recall and state the measured pIC50 for C[C@H]1COCCN1c1cc(C2(S(=O)(=O)c3c(F)cccc3F)CC2)nc(-c2ccc(NC(=O)NCCF)cc2)n1 [Example 86d] .
8.42

Recall and state the measured pIC50 for CN(C)CCNC(=O)Nc1ccc(-c2nc(N3CCOCC3)cc(C3(S(=O)(=O)C4CC4)CCCC3)n2)cc1 [Example 13n] .
6.00

Recall and state the measured pIC50 for CCNC(=O)Nc1ccc(-c2nc(N3CCOCC3)cc(C3(S(=O)(=O)C4CC4)CC3)n2)cc1 [Example 13b] .
8.43

Recall and state the measured pIC50 for C[C@H]1COCCN1c1cc(C2(S(=O)(=O)c3ccc(C(=O)N(C)C)cn3)CC2)nc(-c2ccc(NC(=O)NC3CC3)cc2)n1 [Example 49a] .
8.57

Recall and state the measured pIC50 for C[C@H]1COCCN1c1cc(C2(S(=O)(=O)c3cc(F)ccc3F)CC2)nc(-c2ccc(NC(=O)Nc3cnn(C)c3)cc2)n1 [Example 60f] .
7.76

Recall and state the measured pIC50 for `CCS(=O)(=O)C1(c2cc(N3CCOC[C@@H]3C)nc(-c3ccc(NC(=S)NCCCO)cc3)n2)CCC1` .
7.49

Recall and state the measured pIC50 for C[C@H]1COCCN1c1cc(C2(S(=O)(=O)c3nccs3)CCC2)nc(-c2ccc(NC(=O)NCCCO)cc2)n1 [Example 98j] .
8.43

Recall and state the measured pIC50 for C[C@H]1COCCN1c1cc(C2(S(=O)(=O)c3ccc(Cl)cc3)CC2)nc(-c2ccc(NC(=O)NCCCO)cc2)n1 [Example 27l] .
8.95

Recall and state the measured pIC50 for CC[C@H]1COCCN1c1cc(C2(S(=O)(=O)c3ccccc3)CC2)nc(-c2ccc(NC(=O)NCC(F)F)cc2)n1 [Example 74d] .
8.55

Recall and state the measured pIC50 for C[C@H]1COCCN1c1cc(C2(S(=O)(=O)c3ccncc3)CC2)nc(-c2ccc(NC(=O)NCc3ncc[nH]3)cc2)n1 [Example 36cw] .
7.31

Recall and state the measured pIC50 for `C[C@H]1COCCN1c1cc(C2(S(C)(=O)=O)CCC2)nc(-c2ccc(NC(=O)NCCCO)cc2)n1` .
9.76

Recall and state the measured pIC50 for `O=C(Nc1ccc(-c2nc(N3CCOCC3)cc(C3(S(=O)(=O)CCO)CC3)n2)cc1)NC1CC1` .
7.81

Recall and state the measured pIC50 for C[C@H]1COCCN1c1cc(C2(S(=O)(=O)c3ccccc3F)CC2)nc(-c2ccc(NC(=O)Nc3cnn(C)c3)cc2)n1 [Example 58f] .
8.57

Recall and state the measured pIC50 for Cc1ccc(F)cc1S(=O)(=O)C1(c2cc(N3CCOC[C@@H]3C)nc(-c3ccc(NC(=O)NC4CC4)cc3)n2)CC1 [Example 61a] .
7.49

Recall and state the measured pIC50 for CNC(=O)Nc1ccc(-c2nc(N3CCOC[C@@H]3C)cc(C3(S(=O)(=O)c4ccc(C#N)cc4)CC3)n2)cc1 [Example 77a] .
8.28

Recall and state the measured pIC50 for `C[C@H]1COCCN1c1cc(C2(S(=O)(=O)c3ccc(OC(F)F)cc3)CC2)nc(-c2ccc(NC(=O)NC3CC3)cc2)n1` .
8.11

Recall and state the measured pIC50 for CNC(=O)Nc1ccc(-c2nc(N3CCOC[C@@H]3C)cc(C3(S(=O)(=O)CCCO)CCC3)n2)cc1 [Example 43a] .
8.32

Recall and state the measured pIC50 for CCNC(=O)Nc1ccc(-c2nc(N3CCOC[C@@H]3C)cc(C3(S(=O)(=O)c4cc(F)ccc4F)CC3)n2)cc1 [Example 60e] .
7.94

Recall and state the measured pIC50 for C[C@H]1COCCN1c1cc(C2(S(=O)(=O)c3ccncc3)CC2)nc(-c2ccc(NC(=S)NC3CC3)cc2)n1 [Example 37ae] .
8.02

Recall and state the measured pIC50 for `C[C@H]1COCCN1c1cc(C2(S(C)(=O)=O)CC2)nc(-c2ccc(NC(N)=O)cc2)n1` .
8.38
